EXPERIMENTAL_TARGET: human TLR9 (Homo sapiens, UniProt Q9NR96)
Construct: host or cells: HEK-Blue cells (HEK293-derived reporter line)
Sequence (Q9NR96 26-1032): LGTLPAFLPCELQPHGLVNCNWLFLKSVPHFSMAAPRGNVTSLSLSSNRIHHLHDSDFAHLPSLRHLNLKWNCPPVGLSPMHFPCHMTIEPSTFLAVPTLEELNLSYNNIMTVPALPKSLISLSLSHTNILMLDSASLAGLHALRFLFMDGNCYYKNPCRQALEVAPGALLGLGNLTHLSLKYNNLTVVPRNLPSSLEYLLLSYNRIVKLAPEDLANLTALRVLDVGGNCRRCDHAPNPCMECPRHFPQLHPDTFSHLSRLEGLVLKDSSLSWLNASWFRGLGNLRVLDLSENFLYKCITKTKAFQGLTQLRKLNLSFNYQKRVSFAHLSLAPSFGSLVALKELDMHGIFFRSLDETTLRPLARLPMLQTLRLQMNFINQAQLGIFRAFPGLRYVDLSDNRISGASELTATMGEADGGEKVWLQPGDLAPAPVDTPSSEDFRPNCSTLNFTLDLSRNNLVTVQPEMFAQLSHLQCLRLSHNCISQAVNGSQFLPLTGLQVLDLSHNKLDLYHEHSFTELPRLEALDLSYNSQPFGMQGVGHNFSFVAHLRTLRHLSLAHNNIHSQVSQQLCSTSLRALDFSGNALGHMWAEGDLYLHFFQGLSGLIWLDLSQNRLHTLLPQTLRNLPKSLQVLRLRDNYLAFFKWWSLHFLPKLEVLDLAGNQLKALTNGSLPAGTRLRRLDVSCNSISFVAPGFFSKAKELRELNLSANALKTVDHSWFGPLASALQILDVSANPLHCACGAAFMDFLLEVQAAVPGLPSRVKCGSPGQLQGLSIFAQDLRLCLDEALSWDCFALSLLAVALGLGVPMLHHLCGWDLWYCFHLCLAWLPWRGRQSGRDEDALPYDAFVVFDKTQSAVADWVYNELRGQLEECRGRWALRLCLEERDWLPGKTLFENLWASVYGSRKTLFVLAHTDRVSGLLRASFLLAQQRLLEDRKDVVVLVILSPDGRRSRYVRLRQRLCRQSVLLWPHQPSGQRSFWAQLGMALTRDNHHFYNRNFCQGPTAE
METHOD: TLR9 inhibition reporter assay (HEK-Blue cells, secreted embryonic alkaline phosphatase reporter)
Type: cell-based
RECORDED_CONDITIONS: HEK-Blue cells overexpressing human TLR9, stimulated with ODN2006 5 nM, 22 hour incubation, reporter readout
OBSERVED_PROPERTY: IC50 (nM)

1) Cc1cc(C2CCN(C3CCN(CC(C)C)CC3)CC2)cc2[nH]c(-c3cccc4ncccc34)nc12 [Example 72, tris(2,2,2-trifluoroacetate)] : 88
2) Cc1cc(-c2ccc(N3CCC(N4CCCC4)CC3)cc2)cc2c1nc(-c1ccc(S(C)(=O)=O)cc1)n2C : 510
3) Cc1cc(C2CCN(C3CCN(C(C)C)CC3)CC2)cc2c1nc(-c1ccc(S(C)(=O)=O)c(F)c1)n2C : 140
4) CC(C)N1C2CCC1CC(N1CCC(c3cc(F)c4c(c3)nc(-c3ccc(S(C)(=O)=O)cc3)n4C)CC1)C2 (single isomer, unassigned) [Example 93] : 650
